These entries and their values trace back to patent US10364256B2.

Target: full length Keap1 protein / full length NRF2 protein (Homo sapiens, UniProt Q14145)
Construct: full length NRF2 protein and full length Keap1 protein (Keap1 exists a dimer) are used; His
Sequence (Q14145 whole entry): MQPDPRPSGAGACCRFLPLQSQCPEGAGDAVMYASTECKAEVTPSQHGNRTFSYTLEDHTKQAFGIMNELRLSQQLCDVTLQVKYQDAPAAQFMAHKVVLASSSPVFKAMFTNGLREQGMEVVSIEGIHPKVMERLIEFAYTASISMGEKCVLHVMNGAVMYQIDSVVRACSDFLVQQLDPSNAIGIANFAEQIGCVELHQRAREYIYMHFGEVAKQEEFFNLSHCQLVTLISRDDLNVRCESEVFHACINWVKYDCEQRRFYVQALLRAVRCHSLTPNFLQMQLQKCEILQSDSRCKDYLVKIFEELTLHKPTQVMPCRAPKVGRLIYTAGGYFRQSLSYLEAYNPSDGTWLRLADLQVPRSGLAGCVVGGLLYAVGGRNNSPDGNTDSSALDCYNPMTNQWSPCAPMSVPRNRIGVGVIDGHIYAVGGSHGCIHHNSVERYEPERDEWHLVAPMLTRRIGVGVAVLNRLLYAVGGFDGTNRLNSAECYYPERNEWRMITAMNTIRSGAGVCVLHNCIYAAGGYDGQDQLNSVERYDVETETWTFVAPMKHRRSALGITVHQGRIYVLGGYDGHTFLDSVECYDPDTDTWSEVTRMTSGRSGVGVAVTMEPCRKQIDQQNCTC
Test: NRF2-Keap1 TR-FRET Assay
Type: binding
Conditions: 25 nM Keap1-FlagHis and 50 nM biotin-NRF2 added
Description: In the NRF2-Keap1 TR-FRET (time-resolved fluorescence resonance energy transfer) assay, full length NRF2 protein and full length Keap1 protein (Keap1 exists a dimer) are used. The assay detects the ability of compound to displace the binding of FlagHis-tagged Keap1 with biotinylated, Avi-tagged NRF2 protein. […]
TEST_READOUT: IC50

Consider the reported IC50 for these compounds:
COMPOUND: Cn1cc(C2CC2c2c(C(=O)O)cnn2-c2cccc(-c3cccc(OC4CCOCC4)c3F)c2)nn1 (stereo not drawn)
TESTED_TARGET: full length Keap1 protein / full length NRF2 protein (Homo sapiens, UniProt Q14145)
IC50: 100 to 1000 nM
//
COMPOUND: Cn1cc([C@H]2C[C@@H]2c2c(C(=O)O)cnn2-c2cccc(-c3cccc(C(=O)N4CCCCC4)c3F)c2)nn1 (racemic)
TESTED_TARGET: full length Keap1 protein / full length NRF2 protein (Homo sapiens, UniProt Q14145)
IC50: 10 to 100 nM

Let us examine a further case.
Give reported IC50 value for CO[C@H]1CC[C@H](COc2cccc(-c3cccc(-n4ncc(C(=O)O)c4[C@H]4C[C@@H]4c4cn(C)nn4)c3)c2)CC1 (racemic)
100 to 1000 nM

---

Target: full length Keap1 protein / full length NRF2 protein (Homo sapiens)
Construct: full length NRF2 protein and full length Keap1 protein (Keap1 exists a dimer) are used; His
Test: NRF2-Keap1 TR-FRET Assay
Format: binding
Settings: 25 nM Keap1-FlagHis and 50 nM biotin-NRF2 added
From the text: In the NRF2-Keap1 TR-FRET (time-resolved fluorescence resonance energy transfer) assay, full length NRF2 protein and full length Keap1 protein (Keap1 exists a dimer) are used. The assay detects the ability of compound to displace the binding of FlagHis-tagged Keap1 with biotinylated, Avi-tagged NRF2 protein. […]
pIC50: −log10 of the molar value.
TEST_READOUT: pIC50

Give reported pIC50 value for Cn1cc(C2CC2c2c(C(=O)O)cnn2-c2cccc(-c3cccc(OCC4CCN(C(=O)OC(C)(C)C)CC4)c3)c2)nn1 (stereo not drawn) [Example 167]
6.00 to 7.00

Give reported pIC50 value for Cn1cc([C@H]2C[C@@H]2c2c(C(=O)O)cnn2-c2cccc(-c3cccc(-n4ncc5c4C(C)(C)CC5)c3)c2)nn1 (stereo in doubt) [Example 208]
7.00 to 8.00

Give reported pIC50 value for O=C(O)c1cnn(-c2cccc(-c3cccc(C(=O)N(CCC(F)(F)F)CC4CC4)c3F)c2)c1C1CC1 [Example 23]
5.00 to 6.00

---

IC50: recorded values
molecular target: Keap1 Kelch domain (321-609) / TAMRA-labeled 16mer NRF2 peptide (ETGE motif) (Homo sapiens, UniProt Q14145); construct: the Kelch domain (321-609) of Keap1 is used; experiment: NRF2-Keap1 FP Assay (Keap1 Kelch fluorescence polarization); settings: 20 nM Keap1 (321-609), 8 nM Tamra labeled peptide
Sequence (Q14145 321-609): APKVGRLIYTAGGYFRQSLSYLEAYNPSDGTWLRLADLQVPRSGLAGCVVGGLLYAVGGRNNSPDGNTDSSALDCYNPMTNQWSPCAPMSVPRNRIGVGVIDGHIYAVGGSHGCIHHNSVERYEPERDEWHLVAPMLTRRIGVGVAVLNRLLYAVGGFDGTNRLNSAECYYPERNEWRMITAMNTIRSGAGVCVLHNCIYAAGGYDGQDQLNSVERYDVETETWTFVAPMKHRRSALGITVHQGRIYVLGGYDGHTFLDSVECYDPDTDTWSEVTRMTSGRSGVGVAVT

MOLECULE: Cn1cc(C2CC2c2c(C(=O)O)cnn2-c2cccc(-c3cccc(OC(C)(C)C)c3)c2)nn1 (stereo not shown) [Example 166]
RECORDED_MEASUREMENT: 10 to 100 nM

Give reported IC50 value for CCC[C@@H]1CCCCN1C(=O)c1cccc(-c2cccc(-n3ncc(C(=O)O)c3CCc3cn(C)nn3)c2)c1 [Example 58]
10 to 100 nM

Give reported IC50 value for Cc1c(O[C@@H](C)C2CCCCC2)cccc1-c1cccc(-n2ncc(C(=O)O)c2[C@H]2C[C@@H]2c2cn(C)nn2)c1 (racemic) [Example 71]
1000 to 10000 nM

Give reported IC50 value for CN(C(=O)c1cccc(-c2cccc(-n3ncc(C(=O)O)c3C3CC3)c2)c1F)C1CCCCC1 [Example 5]
100 to 1000 nM

Give reported IC50 value for O=C(O)c1cnn(-c2cccc(-c3cccc(C(=O)N4CCCCC4)c3F)c2)c1C1CC1 [Example 20]
100 to 1000 nM

Give reported IC50 value for Cn1cc(C2CC2c2c(C(=O)O)cnn2-c2cccc(-c3cccc(C(O)CC4CCCCC4)c3)c2)nn1 (stereo not shown) [Example 217]
100 to 1000 nM

Give reported IC50 value for CN(C)C(=O)c1cccc(-c2cccc(-n3ncc(C(=O)O)c3C(F)(F)F)c2)c1F [Example 2]
100 to 1000 nM
